Consider the following compounds and their measured growth readings.
tested on: LOX IMVI melanoma; assay: NCI-60 one-dose screen, 48 h (100 = growth as untreated, 0 = no growth, -100 = all killed); settings: 10 µM unless noted
About 83,000 compounds went through this panel and 20% of them were active in at least one assay; those are over-represented in the sample as a whole.
The figure you give is taken to be in %; do not add the unit.

The examples below pair each entry with its known result.
O=C(CCCn1c2c(sc3ccccc32)c(=O)n2nnc(-c3ccccc3)c12)NCCc1cnc[nH]1 = -49.8
C=C1C(=O)O[C@H]2[C@H]1CC/C(Cn1cc(-c3ccc(N)cc3)nn1)=C\CC[C@@]1(C)O[C@@H]21 = -63.6
COc1ccc(-c2nc(-c3nc4ccc(F)cc4[nH]3)cc3c2[nH]c2ccccc23)cc1 = 29.5
COc1ccc(N=C2NN=C(c3ccc(F)cc3)CS2)cc1OC = 85.5
CCN1C(=O)N(CC)C2Nn3c(s/c(=C\c4cccc(F)c4)c3=O)=NC21 (centres undefined) = 69.7
CCNC(=O)C1CCCN1C(=O)C(CCCN=C(N)N)NC(=O)C(CC(C)C)NC(=O)C(CC(C)C)NC(=O)C(Cc1ccc(O)cc1)NC(=O)C(CO)NC(=O)C(Cc1c[nH]c2ccccc12)NC(=O)C(Cc1cnc[nH]1)NC(=O)C1CCC(=O)N1 (centres undefined) = 95.1
Nc1c(C(=O)Nc2c(Cl)cccc2Cl)sc2nc3c(cc12)CCCCC3 = 58.6
CN(C)c1ccc(/C=C\N=Nc2ccc(Br)cc2)cc1 = 13.2
OCc1c(-c2ccccc2)nc2sccn12 = 104
Clc1nc(-c2cccnc2)nc2sc3c(c12)CCCCCC3 = 100

Param item = COc1cc(-n2nc(C(=O)Nc3ccc(C(=O)O)cc3)nc2-c2ccccc2)cc(OC)c1OC ; retrieve measured growth.
101

Param item = Cc1ccc2c(c1)C(C)Cc1c(N(C)C)ncnc1N2C (centres undefined) ; retrieve measured growth.
37.7

Param item = CC(C)C[C@H](NC(=O)Cn1ccc(NCc2ccccc2)cc1=O)B(O)O ; retrieve measured growth.
-65.5

Param item = C=C1C(=O)O[C@H]2[C@H]1CC/C(Cn1cc(-c3ccccc3C(F)(F)F)nn1)=C\CC[C@@]1(C)O[C@@H]21 ; retrieve measured growth.
-91.7

Param item = COc1cc(/C=C2\C=C(c3ccc(F)cc3)N(Cc3ccccc3)C2=O)cc(OC)c1OC ; retrieve measured growth.
65.3

Param item = COc1cc(/C=C2\CCCC3=C2N=C2SC(C)=NN2C3c2cc(OC)c(OC)c(OC)c2)cc(OC)c1OC (centres undefined) ; retrieve measured growth.
-67.6

Param item = CC/C=C\C[C@H]1C/C=C2/C(=O)C(Cl)=C[C@@H]2C/C=C\CCCC(=O)O1 ; retrieve measured growth.
-91.4

Param item = O=C(C[N+](=O)[O-])c1ccc(Cl)cc1 ; retrieve measured growth.
96.4

Param item = Clc1ccc(/C=C/c2nc(N3CCOCC3)c3nc(Cl)c(Cl)cc3n2)cc1 ; retrieve measured growth.
99.8

----------
test system: RPMI-8226 leukemia; assay: NCI-60 one-dose screen, 48 h; conditions: 10 µM unless noted
About 83,000 compounds went through this panel and 20% of them were active in at least one assay; those are over-represented in the sample as a whole. Activity calls are given as the source filed them. The calls were made as follows: active = growth percent below 10; inactive = the rest.
Tick one outcome: label 1 for active, label 0 for inactive

Look over these answered cases.
COc1cc(OC)c(C(=O)/C=C/c2ccc(C(F)(F)F)cc2)c(OC)c1 = label 0
CCCCOc1nc2c(C)cccc2cc1C1CNC(=O)c2ccccc2N1 (stereo unspecified) = label 0

I'd appreciate the recorded outcome for Nc1nc(Cl)c2c(ncn2Cc2ccc(CCl)cc2)n1 from this test.
label 0

I'd appreciate the recorded outcome for Cc1c(C(=O)NCc2ccccc2)[n+](=O)c2cc(F)ccc2n1[O-] from this test.
label 0

I'd appreciate the recorded outcome for CC/C=C\C/C=C\C[C@H](O)C/C=C1/C(=O)C=C[C@H]1C/C=C\CCC(=O)OC from this test.
label 1

I'd appreciate the recorded outcome for COc1cc(NCCN=C(N)NC(N)=NC(C)C)c2ncccc2c1 from this test.
label 0

I'd appreciate the recorded outcome for CC1Cc2c(N(C)C)ncnc2N(C)c2ccc(Cl)cc21 (stereo unspecified) from this test.
label 0

I'd appreciate the recorded outcome for COc1ccc(C2=NN(c3ccc(S(N)(=O)=O)cc3)C(c3cn(-c4ccccc4)nc3-c3ccc(Cl)cc3)C2)cc1 (stereo unspecified) from this test.
label 0

----------
system: CAKI-1 renal; experiment: NCI-60 one-dose screen, 48 h (100 = growth as untreated, 0 = no growth, -100 = all killed); conditions: 10 µM unless noted
The panel holds about 83,000 compounds, 20% with a hit somewhere; the sample as a whole holds those more often.
Consider the following compounds and their measured growth readings.
The figure you give is taken to be in %; do not add the unit.

Cc1cc(Cl)ccc1OC(C)C(=O)Nc1nnc(C2CC2)s1 (centres undefined) = 103

Param item = CCC(=O)Oc1cc(/C=C/C(=O)O[C@H]2C[C@H]3CN4CCc5c([nH]c6cc(OC)ccc56)[C@@H]4C[C@@H]3[C@@H](C(=O)OC)[C@@H]2OC)ccc1OC ; retrieve measured growth.
45.6

Param item = O=C(CCCn1c2c(sc3ccccc32)c(=O)n2nnc(-c3ccccc3)c12)NCCc1cnc[nH]1 ; retrieve measured growth.
-84

Param item = COc1ccc(/C=C/c2nc(N3CCOCC3)c3cc(F)c(F)cc3n2)cc1OC ; retrieve measured growth.
28.1

Param item = COC1=CC(c2ccc[nH]2)=N/C1=C\c1[nH]c(C)c(C(=O)CCC(=O)Oc2ccc3c(c2)CCC2C3CC[C@]3(C)[C@@H](O)CC[C@@H]23)c1C (some centres undefined) ; retrieve measured growth.
-39.3

Param item = c1ccn2nnnc2c1 ; retrieve measured growth.
97.9

Param item = CC(=O)Nc1nc(C(=O)N2N=C(C)/C(=C/c3cccs3)C2=O)cs1 ; retrieve measured growth.
98.6

Param item = Cn1c(=O)c2c(nc3n2CCN(CCc2ccc(OCCN4CCOCC4)cc2)C3)n(C)c1=O ; retrieve measured growth.
97.5

Param item = COc1ccc(/C=C/C(=O)c2ccc(NC(=O)CN3CCN(c4cc5c(cc4F)c(=O)c(C(=O)O)cn5C4CC4)CC3)cc2)cc1 ; retrieve measured growth.
93

----------
tested on: RXF 393 renal; experiment: NCI-60 one-dose screen, 48 h (100 = growth as untreated, 0 = no growth, -100 = all killed); conditions: 10 µM unless noted
This is part of a sample that, as a whole, favours compounds with a hit. Of some 83,000 tested, about 20% had one in any assay. Activity calls are given as the source filed them. How the source made its calls: active means growth percent below 10; inactive means the rest.
Consider the following molecules and their measured growth readings.

The examples below pair each entry with its known result.
COc1cc(Br)c(OC)cc1Br = 116% (inactive)
O=C(O)Cc1ccc2c(c1)Cc1cccnc1O2 = 91.2% (inactive)
CCC1CCc2nc3sc(C(=O)Nc4ccccc4F)c(N)c3cc2C1 (stereo unspecified) = 79.6% (inactive)
O=C(CNC1CCCCC1)Nc1ccc(-c2nc3ccccc3s2)cc1 = 68.5% (inactive)

Param item = O=S(=O)(NCCCNc1cc(-c2cn(-c3ccccc3)nc2-c2cccc(O)c2)ccn1)c1cccc2ccccc12 ; retrieve measured growth.
32.1% (inactive)

Param item = C=C1C(=O)O[C@H]2[C@H]1CC/C(Cn1cc(-c3ccc(N)cc3)nn1)=C\CC[C@@]1(C)O[C@@H]21 ; retrieve measured growth.
-67.1% (active)

----------
tested on: U251 CNS; assay: NCI-60 one-dose screen, 48 h (100 = growth as untreated, 0 = no growth, -100 = all killed); conditions: 10 µM unless noted
The panel holds about 83,000 compounds, 20% with a hit somewhere; the sample as a whole holds those more often.
reported-metric: growth (%)
The figure you give is taken to be in %; do not add the unit.

The examples below pair each entry with its known result.
CC(=O)Oc1cccc(OC(C)=O)c1OC(C)=O = 95.6
C=C1C(=O)O[C@H]2[C@H]1CC/C(COC(=O)NCCc1cccc(OC)c1)=C\CC[C@@]1(C)O[C@@H]21 = 66
Nc1cccc2c1CN(C1CCC(=O)NC1=O)C2=O (stereo unspecified) = 97
Cc1cc(C(=O)O)c(N)c(C)n1 = 104
Cc1ccc(Oc2nc3ccccc3cc2-c2nnc(Cn3c(COc4ccccc4)nc4ccccc43)o2)cc1 = 43

Then this molecule:
Param item = O=c1oc2cc(OS(=O)(=O)c3ccccc3)c(Cl)cc2c2c1CCCCCC2 ; retrieve measured growth.
87.5

----------
tested on: RXF 393 renal; assay: NCI-60 one-dose screen, 48 h (100 = growth as untreated, 0 = no growth, -100 = all killed); settings: 10 µM unless noted
About 83,000 compounds went through this panel and 20% of them were active in at least one assay; those are over-represented in the sample as a whole.
Mark each entry TRUE if its growth sits below 10%, and FALSE for all others.

Look over these answered cases.
O=S=Nc1ccc([N+](=O)[O-])cc1 = FALSE
N=C(N)c1ccc(-c2ccc(-c3ccc(Cl)cc3)o2)nc1 = TRUE
O=C1CCCCN1CCCCC#Cc1ccccc1C#Cc1ccccn1 = FALSE
c1ccn2nnnc2c1 = FALSE
COc1cc(C(=O)OCCCCCCCCCCC[P+](c2ccccc2)(c2ccccc2)c2ccccc2)ccc1O = TRUE

Does the reported growth of the following compound sit strictly below 10%? O=C1C2=C(C(=O)c3c(O)ccc(O)c31)N(c1cccnc1)Cc1ccccc1O2
TRUE

Does the reported growth of the following compound sit strictly below 10%? CCC(c1ccc(OC)cc1)C(CC)c1ccc(O)c(CN2CCCC2)c1 (configuration not stated)
TRUE

Does the reported growth of the following compound sit strictly below 10%? COc1ccc(NC(=O)CSc2nc3ccccc3c(=O)n2Cc2cc(OC)c(OC)c(OC)c2)cc1
FALSE

Does the reported growth of the following compound sit strictly below 10%? COc1cc(/C=C2\C=C(c3ccc(F)cc3)N(Cc3ccccc3)C2=O)cc(OC)c1OC
FALSE
